Experimental target: native aSyn aggregates in A30P transgenic mouse brain sections (Homo sapiens, UniProt P37840, A30P)
Construct: from tissue; host or cells: brain sections (midbrain and pons as ROI) of A30P transgenic mice, line B6.D2-Tg(Thy1-SNCA*30P)31Pjk
Assay info: aSyn in vitro displacement assay ([3H]Example-3 autoradiography)
Assay type: binding, mutant human aSyn gene)
Condition: 3 μM compound; 3 nM [3H]Example-3; A30P transgenic mouse brain sections; read-out: PCT_INHIB A30P @ 3 μM
Assay readout: inhibition at 3 µM (%)
Give bare numbers, in %.

// worked examples, inhibition at 3 µM included
C#CCOc1ccc(C(=O)Nc2ccc(N3CCN(c4ccc(C#N)cn4)CC3)cc2)cc1; 87
COc1ccc(C(=O)Nc2ccc(N3CCN(c4ccccn4)CC3)cc2)cc1; 100
C#Cc1ccc(N2CCN(c3ccc(NC(=O)c4ccc(OC)cc4)cc3)CC2)nc1; 102
C#CCOc1ccc(C(=O)Nc2ccc(N3CCN(c4ccccn4)CC3)cc2)cc1; 96
C#CCOCCOc1ccc(C(=O)Nc2ccc(N3CCN(c4ccccn4)CC3)cc2)cc1; 97

# evaluate next
Request: Consider the molecule "C#CCOCCOc1ccc(C(=O)Nc2ccc(N3CCN(c4ccc(C#N)cn4)CC3)cc2)cc1" and give its measured inhibition at 3 µM.
Response: 85

* * *

Could you please report measured inhibition at 1 µM for the items listed next?
Experimental target: native Aβ aggregates in human AD brain tissue sections (Homo sapiens, UniProt P05067)
Construct: native Aβ aggregates in human AD brain tissue samples; from tissue; host or cells: human AD brain tissue sections
Sequence (P05067 672-713 limits assumed): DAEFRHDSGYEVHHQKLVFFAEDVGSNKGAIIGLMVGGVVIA
Assay info: Aβ in vitro displacement assay (selectivity counterscreen, [3H]Example 3 autoradiography)
Format: binding
Condition: 1 μM compound; 3 nM [3H]Example 3; human AD brain sections; read-out: sel. counterscreen PCT_INHIB AD @ 1 μM (% displacement of [3H]Example 3)
Numbers only, in %.

O=C(Nc1ccc(N2CCN(c3cccs3)CC2)cc1)c1ccc(N2CCOCC2)cc1; 93
Cc1ccc(C(=O)Nc2ccc(N3CCN(c4nccs4)CC3)cc2)c(F)c1; 91
O=C(Nc1ccc(N2CCN(c3cccnc3)CC2)cc1)c1ccc(O)cc1; 89

Go through the items and report each one's inhibition at 1 µM.
1. COc1ccc(C(=O)Nc2cnc(N3CCN(c4ccccn4)CC3)cn2)c(F)c1
2. COc1ccc(C(=O)Nc2ccc(N3CCN(c4ccccn4)CC3)cn2)c(C)c1

Response:
[100, 94]

* * *

Kindly state inhibition at 1 µM for each of the entries shown.
Experimental target: native Aβ aggregates in human AD brain tissue sections (Homo sapiens, UniProt P05067)
Construct: native Aβ aggregates in human AD brain tissue samples; from tissue; host or cells: human AD brain tissue sections
Assay info: Aβ in vitro displacement assay (selectivity counterscreen, [3H]Example 3 autoradiography)
Assay type: binding
Condition: 1 μM compound; 3 nM [3H]Example 3; human AD brain sections; read-out: sel. counterscreen PCT_INHIB AD @ 1 μM (% displacement of [3H]Example 3)
Answers are plain numbers, in %.

These solved cases illustrate the format of a correct answer.
O=C(Nc1ccc(N2CCN(c3ccccn3)CC2)cn1)c1ccc(N2CCOCC2)cc1 [Example 51]; 94
CN1CCOc2cc(C(=O)Nc3ccc(N4CCN(c5ccccn5)CC4)cc3)ccc21 [Example 42]; 94
Cc1ccc(C(=O)Nc2cnc(N3CCN(c4ccccn4)CC3)cn2)cc1 [Example 89]; 88
COc1ccc(C(=O)Nc2ccc(N3CCN(c4ccccn4)CC3)cc2C)c(F)c1 [Example 29]; 83
COc1ccc(C(=O)Nc2ccc(N3CCN(c4ccccn4)CC3)cn2)nc1 [Example 76]; 91

List the reported inhibition at 1 µM of each molecule below.
1. N#Cc1ccc(N2CCN(c3ccc(NC(=O)c4ccncc4)cc3)CC2)nc1 [Example 161]
2. COc1ccc(C(=O)Nc2ccc(N3C[C@H]4CN(c5ccccn5)C[C@@H]4C3)cc2)cc1 [Example 132]
3. COc1ccc(C(=O)Nc2ccc(N3CCN(c4ccccn4)CC3)nc2)c(F)c1 [Example 34]
4. COc1ccc(C(=O)Nc2ccc(N3CCN(c4ccccn4)CC3)cn2)c(F)c1 [Example 44]
5. N#Cc1ccc(N2CCN(c3ccc(NC(=O)c4ccc(OCC(O)CF)cc4)cc3)CC2)nc1 (racemic) [Example 129]
6. COc1ccc(C(=O)Nc2ccc(N3C[C@@H]4CN(c5ccccn5)C[C@H]4C3)cc2)cc1 [Example 133]
7. COc1ccc(C(=O)Nc2cnc(N3CCN(c4ccccn4)CC3)cn2)cc1 [Example 85]

Response:
1: 87; 2: 20; 3: 99; 4: 94; 5: 94; 6: 84; 7: 107
